Structures can show the parent of a compound that is named as a salt.
Result Type: melting point

Prompt line: Given C[C@@H](O)Cn1c(=O)c(Oc2ccc(F)cc2F)cc2cnc(NC(C)(C)CO)nc21 (as salt: hydrochloride) , respond with its melting point.
Response line: 182 to 183.9 °C

Prompt line: Given C[C@@H](O)Cn1c(=O)c(Oc2ccc(F)cc2F)cc2cnc(N[C@@H](C)CO)nc21 (as salt: hydrochloride) , respond with its melting point.
Response line: 186 to 189.1 °C

Prompt line: Given C[C@H](O)Cn1c(=O)c(Oc2ccc(F)cc2F)cc2cnc(N[C@@H](C)CO)nc21 (as salt: hydrochloride) , respond with its melting point.
Response line: 175.1 to 179.1 °C

Prompt line: Given C[C@H](O)Cn1c(=O)c(Oc2ccc(F)cc2F)cc2cnc(NC(C)(C)CO)nc21 (as salt: hydrochloride) , respond with its melting point.
Response line: 187.4 to 189.9 °C

Prompt line: Given C[C@H](O)Cn1c(=O)c(Oc2ccc(F)cc2F)cc2cnc(N[C@H](C)CO)nc21 (as salt: hydrochloride) , respond with its melting point.
Response line: 174.9 to 178.1 °C

Prompt line: Given CC(=O)Cn1c(=O)c(Oc2ccc(F)cc2F)cc2cnc(N[C@@H](C)CO)nc21 (as salt: hydrochloride) , respond with its melting point.
Response line: 207.9 to 214.6 °C

Prompt line: Given CC(=O)Cn1c(=O)c(Oc2ccc(F)cc2F)cc2cnc(N[C@H](C)CO)nc21 (as salt: hydrochloride) , respond with its melting point.
Response line: 207.8 to 216.4 °C

Prompt line: Given C[C@H](CO)Nc1ncc2cc(Oc3ccc(F)cc3F)c(=O)n(C[C@@H](C)O)c2n1 (as salt: hydrochloride) , respond with its melting point.
Response line: 181.5 to 184.4 °C

* * *

# Tested on: LPS-induced IL-1β production in undiluted human whole blood
# Method Description: human whole blood (HWB) in vitro assay, IL-1β ELISA
# Assay type: cell-based
# Reported Conditions: 0.5 μg/mL LPS, 18 hours, 30 min pre-incubation
Result Type: IC50 (nM)
Form entry: value (nM) — number only.

Prompt line: Given C[C@@H](O)Cn1c(=O)c(Oc2ccc(F)cc2F)cc2cnc(NC3CCOCC3)nc21 , respond with its IC50.
Response line: 1
